Value source: the supplement of paper PMC4166925

Test system: SpTbr T-box DNA-binding domain (GST fusion);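 note: protein at 200 nM in PBS on universal double-stranded arrays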
Sequence: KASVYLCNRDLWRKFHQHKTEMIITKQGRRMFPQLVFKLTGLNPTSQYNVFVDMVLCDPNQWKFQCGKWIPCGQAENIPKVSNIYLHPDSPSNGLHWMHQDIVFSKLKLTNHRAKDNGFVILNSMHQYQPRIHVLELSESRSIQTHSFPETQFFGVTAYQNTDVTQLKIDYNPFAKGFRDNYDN
Experiment: PBM E-score of 8-mer (E-score (dimensionless, -0.5 to 0.5)); Tbr is Tbrain of the sea star Patiria miniata (Pm) or the sea urchin Strongylocentrotus purpuratus (Sp); higher = stronger binding preference
Conditions: the construct has about 5 more residues each side
The full ranking holds about 33,000 sequences; the median of “E-score (dimensionless, -0.5 to 0.5)” is about -0.046, and the highest 2% start at about 0.36. What follows is part of a selection rich in the highest values, with near analogues and random picks from the rest.
I'd appreciate it if you could label each record using PBM E-score of 8-mer and these ranges: lower (below 0.03), middle (0.03 to below 0.2), upper (0.2 or more)

• CCTCGCAG = middle
• GATGCGAC = upper
• TACCTCAA = lower
• CACCTCAG = upper
• ACGTGTTG = upper
• AACCTCAA = lower
• AATGGGAA = lower
• ACTCGCAC = upper
• CCGTGTTA = middle
• ACTGTGAT = upper
• GCATCCCA = lower
• ATTCTGTG = lower
• CACCTCAC = upper
• AACCTCAC = middle
• GTTGCGAA = upper
• ACTCGCAG = middle
• CGTGCAAA = middle
